ASSAY: soluble on expression in E. coli; label from the status in PepcDB or PDB records
RECORDED_METRIC: soluble on expression in E. coli

# count of solved cases: 5
CONSTRUCT_SEQUENCE	soluble on expression in E. coli
EVKDYMSQPVVLRENTTVYDAICTIFLEDVSTLFIINEDNDFVGVCSRKDLLRASMIGADIHTVPISVNMTRMPNVTYLEESELVIYAADRMIEKEIDSIPIVRKKDNQKYEVIGRISKTTIAKLLVALYKE	not soluble
MTLSRFAYNGQRCPSSHNILDNSKIISEDCRKELTELFHHYYPIEIDPHRTIKEKLPHMVQWWSKAHSLLCQQRIQKVQIAQVVGESTAMLREGYKTFFDTLYQNNIPLFIFSAGIGDILEEIIRQMKVFHPNIHIVSNYMDFSEDGFLKGFKGQLIHTYNKNSSVCENSSYFQQLQNKTNIILLGDSIGDLTMADGVPGVQNILKIGFLNDKVEERRERYMDSYDIVLEKDETLDVVNGLLRHILYQGDCVELQGS	soluble
MAHHHHHHMMKNTVRQFVKEITYLEVWEHFRRFGDAAGPDSVKCRLLCSDAVATQLNERIRMRYLLEQFLAQSSTTTSTGVAGEPRRWWEGDLTRCVDSDRRVLAETLLEDGWMLMQLNNCVSDREWLITTMTFQREKSTT	not soluble
MGSDKIHHHHHHMKVFDVHKFDMKKEQDFLQVQFNLKNRINLSPTIHPDSINTGAGVDLAYWEQDGEPYGVCCIIVIDADTKEVIEKVHSMGRISVPYVSGFLAFRELPLIIEAAKKLETEPDVFLFDGNGYLHYNHMGVATHAAFFLGKPTIGIAKTYLKIKGCDFVTPEIEVGAYTDIIIDGEVYGRALRTRRDVKPIFLSCGNYIDLDSSYQITMSLINQESRLPIPVRLADLETHVLRTFYQKNHV	not soluble
MSGKPPAIFLMGPTAAGKTDLAIELTTVLPCELISVDSALVYRGMDIGSAKPSKEVLAAHPHRLIDILDPAQSYSAAQFRADALEAMAEITARGKIPLLVGGTMLYYKALIDGLADMPAADATVRAELEAQAEALGLAELHRQLAEVDPESAARIHPNDPQRLIRALEVYRVSGESMTAHRRRQFAESRGADAGAGGHLPYTVASLAIAPTDRHILHQRIALRFSQMLEQGFVDEVRSLRARSDLHAGLPSIRAVGYRQVWDYLDGKLTENEMRERGIIATRQLAKRQFTWLRGWPEVHWLDSLACDNLSRTLKYLGAISILSLEHHHHHH	soluble

Here's the next entry for you.
Prompt: Using the record for "MTKVSVVGAAGTVGAAAGYNIALRDIADEVVFVDIPDKEDDTVGQAADTNHGIAYDSNTRVRQGGYEDTAGSDVVVITAGIPRQPGQTRIDLAGDNAPIMEDIQSSLDEHNDDYISLTTSNPVDLLNRHLYEAGDRSREQVIGFGGRLDSARFRYVLSEEFDAPVQNVEGTILGEHGDAQVPVFSKVSVDGTDPEFSGDEKEQLLGDLQESAMDVIERKGATEWGPARGVAHMVEAILHDTGEVLPASVKLEGEFGHEDTAFGVPVSLGSNGVEEIVEWDLDDYEQDLMADAAEKLSDQYDKIS" , state its measured soluble on expression in E. coli.
Response: soluble

* * *

ASSAY: soluble on expression in E. coli; label from the status in PepcDB or PDB records
RECORDED_METRIC: soluble on expression in E. coli

# count of solved cases: 5
CONSTRUCT_SEQUENCE	soluble on expression in E. coli
MIDHNIRTGKAFFGRRKGKRLRNSQLVLIKKLFPTLDINLNNSVPLNLTSLFSRKVKEVRLEIGFGGGEHLLHEMKHFPQTGFIGIEPFINGMAKMLMSLEEHKQYQNQLRLYNDDATGLLDWLPNASLDGIDLFYPDPWPKKKHWKRRFINMKNLNRFARVLKTGKKFRFASDIESYVNWTLYHCSNHHSFEWEAKNPKDWKTPYTLWSGTRYEAKALREGRAPTYLTFIKK	not soluble
MKKILLVLNHSLAGFGSDEQAQLKPSGKKAPLGPGVTLLPFLQKQGAEIVATLYCGDQYYLENEEEVAKKFIGFAKKFHADAVLCGPAMHYPNFGEMAARLACKFNAAGIPAIAAMAEENPAVSHYYQQVPIVKMPKKGGIGLNNSFKQMAQLVVAKANGKETKQLEETSCF	not soluble
MGSDKIHHHHHHMNPSSRHPQHSDTAASGASEGVPRRYASGRQYELRRGDALAVVTELAAGLRLYSRGGVQLTETYGDGDIPPGATGITLAPWANRVEDGVWYLNGKKQQLDITEVSRNNASHGLLRNAAYELVDEAEFSVTLEAPVFPQHGYPFLVRHRVQYLLAEDLGLVVRQTLLNDSQAPAPFVLGAHPYLRLGDVPASDLVLTVGTGSRLVADERLIPRSSEQVDGATDLRGGRTVSELDIDVAYTDLTFDGGVARQTLKASDGRSVSLWQDENCSYVHVFVTDQYPGRAKAVAIEPMTGPANAFNSGDGLRWLPAGESFTMTWGISASL	not soluble
MAYQVTTFYHFTRLNCLAEKQSRWQELGDRLGLKGTILLAEEGVNATIAGESAAIEEMVKIMAADLGLTSVPQRHSWAKTIPFQRMKVKIKPEIVSLGQPQVNPEKQVGTYVSPQQWNQLLQDPDVVVIDTRNDYEVAIGTFQGAVNPCTKKFRQFPDYVKNNLDQQKNKKVAMFCTGGIRCEKASAYLLEEGFAEVYHLRGGILHYLETIAPEESLWQGECFVFDERVAVQEGLKVGSHALCDHCGYPLRVGDLAEIRYAVRHCPQCGLTVAVSNELLEHHHHHH	soluble
MGPAPRVLELFYDVLSPYSWLGFEVLCRYQHLWNIKLKLRPALLAGIMKDSGNQPPAMVPHKGQYILKEIPLLKQLFQVPMSVPKDFFGEHVKKGTVNAMRFLTAVSMEQPEMLEKVSRELWMRIWSRDEDITESQNILSAAEKAGMATAQAQHLLNKISTELVKSKLRETTGAACKYGAFGLPTTVAHVDGKTYMLFGSDRMELLAYLLGEKWMGPVPPTLNARL	soluble

Here's the next entry for you.
Prompt: Using the record for "MGSDKIHHHHHHMINVLILGAASQISRFLIPDLLADKTVYLTLFARQAPQRLGQYAGESRVTLVDGDWNQEADIEQVMSNQDIVFLASSSLVGNQNVVTVMKHTGVQRLIVAGGLGIDDEVAGKFGNWNTRMMGDYTPYKQAAKVILDSGLNTTYLRMTWLYDENGNEKYQIVPEGQPLRGTQVTRQAVAKLVTAIVRQPSLYQYANIGVVEPGTEWDKPSFY" , state its measured soluble on expression in E. coli.
Response: not soluble

Source of measurements: the DeepSol protein solubility set
